Ref: patent US12252534

target: T1, human CD3 on human T cells (Jurkat) (human, UniProt P07766 23-207; P04234 22-171; P09693 23-182); assay: flow cytometry, Jurkat cells, 8 nM antibody
T1 construct: whole, on cells; also called huCD3+; cell surface CD3 on human (Jurkat) T cells
T1 sequence (P07766 23-207, chain 1 of 3): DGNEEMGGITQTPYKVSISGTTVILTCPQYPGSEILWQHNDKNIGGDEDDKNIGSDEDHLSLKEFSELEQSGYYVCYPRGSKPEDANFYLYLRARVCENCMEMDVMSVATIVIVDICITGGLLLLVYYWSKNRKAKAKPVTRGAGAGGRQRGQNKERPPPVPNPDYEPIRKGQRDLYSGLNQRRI
T1 sequence (P04234 22-171, chain 2 of 3): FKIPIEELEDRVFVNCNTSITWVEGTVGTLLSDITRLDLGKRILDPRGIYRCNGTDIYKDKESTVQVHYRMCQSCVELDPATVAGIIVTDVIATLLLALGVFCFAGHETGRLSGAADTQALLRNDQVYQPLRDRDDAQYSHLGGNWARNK
T1 sequence (P09693 23-182, chain 3 of 3): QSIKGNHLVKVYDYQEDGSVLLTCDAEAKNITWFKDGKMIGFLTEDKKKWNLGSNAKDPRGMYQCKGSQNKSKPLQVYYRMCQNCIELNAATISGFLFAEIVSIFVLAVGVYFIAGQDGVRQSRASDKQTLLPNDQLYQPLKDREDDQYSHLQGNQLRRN
QUANTITY NAME: MFI

INSERT INTO measurements (binder, value_reported) VALUES
  ('HuL1H1 (Fab, V domains shown, Detected with anti-human kappa; also called VL1 + VH1 humanized Fab) VH: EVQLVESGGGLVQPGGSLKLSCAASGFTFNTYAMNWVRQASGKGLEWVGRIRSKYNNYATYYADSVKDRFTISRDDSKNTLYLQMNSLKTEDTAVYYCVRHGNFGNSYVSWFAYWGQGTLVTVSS VL: QAVVTQEPSLTVSPGGTVTLTCGSSTGAVTTSNYANWFQQKPGQAPRTLIYGTNKRAPWTPARFSGSLLGGKAALTISGAQPEDEAEYYCALWYSNLWVFGGGTKLTVL', 1450),
  ('HuL10H2 (Fab, V domains shown, Humanized Fab expressed in Expi293F; also called VL10 + VH2 humanized Fab) VH: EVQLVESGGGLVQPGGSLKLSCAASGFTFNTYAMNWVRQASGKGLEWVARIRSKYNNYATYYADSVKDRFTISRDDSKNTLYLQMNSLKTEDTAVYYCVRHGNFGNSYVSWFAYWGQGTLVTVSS VL: QAVVTQEPSLTTSPGGTVTLTCRSSTGAVTTSNYANWVQQKPDHLFTGLIGGTNKRAPGVPARFSGSLIGDKAALTISGAQPEDEAEYYCALWYSNLWVFGGGTKLTVL', 3270),
  ('huL5H2 (heavy chain SEQ ID NO: 41 and light chain SEQ ID NO: 39) (Fab, V domains shown, also called VL5 kappa + H2 Fab) VH: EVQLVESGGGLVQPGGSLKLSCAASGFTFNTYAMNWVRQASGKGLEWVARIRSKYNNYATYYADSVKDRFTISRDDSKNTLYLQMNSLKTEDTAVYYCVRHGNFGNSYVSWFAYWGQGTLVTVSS VL: QAVVTQEPSLTVSPGGTVTLTCRSSTGAVTTSNYANWVQQKPDHLFRGLIGGTNKRAPGTPARFSGSLLGDKAALTISGAQPEDEAEYYCALWYSNLWVFGGGTKLTVLK', 31700),
  ('HuL8H2 (Fab, V domains shown, Humanized Fab expressed in Expi293F; also called VL8 + VH2 humanized Fab) VH: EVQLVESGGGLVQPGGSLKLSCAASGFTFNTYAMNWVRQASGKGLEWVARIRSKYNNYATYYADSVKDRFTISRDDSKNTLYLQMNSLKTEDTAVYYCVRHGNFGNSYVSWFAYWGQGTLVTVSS VL: QAVVTQEPSLTVSPGGTVTLTCGSSTGAVTTSNYANWVQQKPDHLFRGLIGGTNKRAPGTPARFSGSLLGGKAALTISGAQPEDEAEYYCALWYSNLWVFGGGTKLTVL', 7670),
  ('HuL7H2 (Fab, V domains shown, Humanized Fab expressed in Expi293F; also called VL7 + VH2 humanized Fab) VH: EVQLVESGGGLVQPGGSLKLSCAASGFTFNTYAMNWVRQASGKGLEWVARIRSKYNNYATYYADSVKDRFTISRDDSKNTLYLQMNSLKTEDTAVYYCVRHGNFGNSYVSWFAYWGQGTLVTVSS VL: QAVVTQEPSLTVSPGGTVTLTCRSSTGAVTTSNYANWVQQKPGQAFRGLIGGTNKRAPGTPARFSGSLLGDKAALTISGAQPEDEAEYYCALWYSNLWVFGGGTKLTVL', 4240),
  ('HuL4H2 (Fab, V domains shown, Humanized Fab expressed in Expi293F; also called VL4 + VH2 humanized Fab) VH: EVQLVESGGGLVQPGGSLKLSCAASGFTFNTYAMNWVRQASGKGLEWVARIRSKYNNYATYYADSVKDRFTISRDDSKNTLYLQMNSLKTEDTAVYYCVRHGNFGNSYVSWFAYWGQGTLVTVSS VL: QAVVTQEPSLTVSPGGTVTLTCGSSTGAVTTSNYANWVQQKPGQAFRGLIYGTNKRAPWTPARFSGSLLGDKAALTISGAQPEDEAEYYCALWYSNLWVFGGGTKLTVL', 620);
